biological target: KRAS G12S (Homo sapiens, UniProt P01116+P62937, G12S); test: Disruption of BRAF RBD interaction with Ras (FRET / MOA assay, with Cyclophilin A); type: biochemical; conditions: read-out: KRAS G12S FRET data, IC50
Sequence (P01116 1-169 isoform P01116-2 G12S limits assumed): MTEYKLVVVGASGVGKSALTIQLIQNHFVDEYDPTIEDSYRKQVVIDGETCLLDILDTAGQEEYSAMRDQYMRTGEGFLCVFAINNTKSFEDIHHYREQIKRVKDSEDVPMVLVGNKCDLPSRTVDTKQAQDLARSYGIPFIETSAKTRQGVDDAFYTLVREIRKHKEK
Sequence (P62937 whole entry): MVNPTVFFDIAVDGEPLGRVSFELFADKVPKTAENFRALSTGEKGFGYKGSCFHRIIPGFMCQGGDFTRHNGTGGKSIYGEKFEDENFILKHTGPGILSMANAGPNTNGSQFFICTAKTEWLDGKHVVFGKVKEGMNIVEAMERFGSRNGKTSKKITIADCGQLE
Observable: IC50

Smiles: CCn1c(-c2cccnc2[C@H](C)OC)c2c3cc(ccc31)-c1csc(n1)C[C@H](NC(=O)[C@H](C(C)C)N(C)C(=O)N1CC[C@H](N(C)C)C1)C(=O)N1CCC[C@H](N1)C(=O)OCC(C)(C)C2
Observed Result: 0.1 to 1 µM
//
Smiles: C=CC(=O)N1CC[C@H](C(=O)N(C)[C@H](C(=O)N[C@H]2Cc3cc(O)cc(c3)-c3ccc4c(c3)c(c(-c3c(CCOC)cccc3OC)n4CC)CC(C)(C)COC(=O)[C@@H]3CCCN(N3)C2=O)C(C)C)C1
Observed Result: > 10 µM
//
Smiles: CCn1c(-c2cccnc2[C@H](C)OC)c2c3cc(ccc31)-c1csc(n1)C[C@H](NC(=O)[C@H](C(C)C)N(C)C(=O)N1CCN3CCOC[C@@H]3C1)C(=O)N1CCC[C@H](N1)C(=O)OCC(C)(C)C2
Observed Result: 0.1 to 1 µM

====

target: KRAS G12D (Homo sapiens, UniProt P01116+P62937, G12D); experiment: Ras-Raf disruption / FRET / MOA assay (BRAF RBD); assay type: biochemical; details: KRAS G12D FRET data IC50, Ras-Raf disruption, with Cyclophilin A
Sequence (P01116 1-169 isoform P01116-2 G12D limits assumed): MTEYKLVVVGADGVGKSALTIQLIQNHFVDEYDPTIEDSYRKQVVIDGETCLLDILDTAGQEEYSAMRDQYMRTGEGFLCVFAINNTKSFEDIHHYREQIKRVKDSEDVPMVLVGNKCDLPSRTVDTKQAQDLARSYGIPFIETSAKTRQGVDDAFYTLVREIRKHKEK
Sequence (P62937 whole entry): as the sequence (P62937 whole entry) above
pIC50: −log10 of the molar value.
Recorded pIC50 by entry

Compound: CCn1c(-c2cccnc2[C@H](C)OC)c2c3cc(ccc31)-c1cc(O)cc(c1)C[C@H](NC(=O)[C@H](C(C)C)N(C)C(=O)CN(C)C(=O)[C@@H]1CN1C(C)C)C(=O)N1CCC[C@H](N1)C(=O)OCC(C)(C)C2 (some centres unmarked) [Example 148]
System Under Test: KRAS G12D (Homo sapiens, UniProt P01116+P62937, G12D)
pIC50: 7.00 to 8.00
//
Compound: CCn1c(-c2cccnc2[C@H](C)OC)c2c3cc(ccc31)-c1cc(O)cc(c1)C[C@H](NC(=O)[C@H](C(C)C)N(C)C(=O)CN(C)C(=O)[C@H]1N[C@@H]1C(F)(F)F)C(=O)N1CCC[C@H](N1)C(=O)OCC(C)(C)C2 [Example 261]
System Under Test: KRAS G12D (Homo sapiens, UniProt P01116+P62937, G12D)
pIC50: 7.00 to 8.00
//
Compound: CCn1c(-c2cccnc2[C@H](C)OC)c2c3cc(ccc31)-c1csc(n1)C[C@H](NC(=O)[C@H](C1CCCC1)N(C)C(=O)CN(C)C(=O)[C@H]1CN1)C(=O)N1CCC[C@H](N1)C(=O)OCC(C)(C)C2 [Example 132]
System Under Test: KRAS G12D (Homo sapiens, UniProt P01116+P62937, G12D)
pIC50: 5.00 to 6.00
//
Compound: CCn1c(-c2cccnc2[C@H](C)OC)c2c3cc(ccc31)-c1cc(O)cc(c1)C[C@H](NC(=O)[C@H](C(C)C)N(C)C(=O)CN(C)C(=O)[C@H]1CN1CCCN1CCCC1=O)C(=O)N1CCC[C@H](N1)C(=O)OCC(C)(C)C2 (some centres unmarked) [Example 268]
System Under Test: KRAS G12D (Homo sapiens, UniProt P01116+P62937, G12D)
pIC50: 6.00 to 7.00
//
Compound: CCn1c(-c2cccnc2[C@H](C)OC)c2c3cc(ccc31)-c1cc(O)cc(c1)C[C@H](NC(=O)[C@H](C(C)C)N(C)C(=O)CN(C)C(=O)[C@@H]1N[C@@H]1C1COC1)C(=O)N1CCC[C@H](N1)C(=O)OCC(C)(C)C2 [Example 281]
System Under Test: KRAS G12D (Homo sapiens, UniProt P01116+P62937, G12D)
pIC50: 7.00 to 8.00
//
Compound: CCn1c(-c2cccnc2[C@H](C)OC)c2c3cc(ccc31)-c1cc(O)cc(c1)C[C@H](NC(=O)[C@H](C(C)C)N(C)C(=O)CN(C)C(=O)[C@@H]1CN1CCCN1CCCC1=O)C(=O)N1CCC[C@H](N1)C(=O)OCC(C)(C)C2 (some centres unmarked) [Example 269]
System Under Test: KRAS G12D (Homo sapiens, UniProt P01116+P62937, G12D)
pIC50: 7.00 to 8.00
//
Compound: CCn1c(-c2cccnc2[C@H](C)OC)c2c3cc(ccc31)-c1cc(O)cc(c1)C[C@H](NC(=O)[C@H](C1CCCC1)N(C)C(=O)CN(C)C(=O)[C@H]1N[C@H]1C1(F)CC1)C(=O)N1CCC[C@H](N1)C(=O)OCC(C)(C)C2 [Example 315]
System Under Test: KRAS G12D (Homo sapiens, UniProt P01116+P62937, G12D)
pIC50: 7.00 to 8.00
//
Compound: CCn1c(-c2cccnc2[C@H](C)OC)c2c3cc(ccc31)-c1cc(O)cc(c1)C[C@H](NC(=O)[C@H](C(C)C)N1CC[C@@H](NC(=O)[C@@H]3CN3)C1=O)C(=O)N1CCC[C@H](N1)C(=O)OCC(C)(C)C2 [Example 129]
System Under Test: KRAS G12D (Homo sapiens, UniProt P01116+P62937, G12D)
pIC50: 6.00 to 7.00

====

Recorded IC50 by entry
test system: Capan-1 (K-Ras G12V); test: CellTiter-Glo cell viability assay, 5-day treatment; type: cell-based; conditions: Homo sapiens, CAPAN-1, 120 h, 5-day treatment; read-out: Capan-1 Cell Viability assay data (K-Ras G12V, IC50)

Compound: CCn1c(-c2cccnc2[C@H](C)OC)c2c3cc(ccc31)-c1csc(n1)C[C@H](NC(=O)[C@H](C(C)C)N(C)C(=O)N1CC[C@]13CCCNC3)C(=O)N1CCC[C@H](N1)C(=O)OCC(C)(C)C2
IC50: 1000 to 10000 nM

Compound: CCn1c(-c2cccnc2[C@H](C)OC)c2c3cc(ccc31)-c1csc(n1)C[C@H](NC(=O)[C@H](C(C)C)N(C)C(=O)N1CC(C3CN(C)C3)C1)C(=O)N1CCC[C@H](N1)C(=O)OCC(C)(C)C2 (atropisomer, axis not shown)
IC50: 10 to 100 nM

====

molecular target: NRAS Q61K (Homo sapiens, UniProt P01111+P62937, Q61K); assay: Disruption of BRAF RBD interaction with Ras (FRET / MOA assay, with Cyclophilin A); type: biochemical; conditions: NRAS Q61K; read-out: NRAS Q61K FRET data IC50
Sequence (P01111 whole entry Q61K, one chain of several): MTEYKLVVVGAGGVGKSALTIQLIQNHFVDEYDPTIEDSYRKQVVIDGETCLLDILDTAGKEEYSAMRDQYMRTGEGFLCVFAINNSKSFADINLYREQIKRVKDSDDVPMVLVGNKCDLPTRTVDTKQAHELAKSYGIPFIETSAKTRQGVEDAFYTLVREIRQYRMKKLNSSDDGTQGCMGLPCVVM
Observable: IC50

Compound: CCn1c(-c2cc(N3CCN(C)CC3)cnc2[C@H](C)OC)c2c3cc(ccc31)-c1cc(O)cc(c1)C[C@H](NC(=O)[C@H](C1CCCC1)N(C)C(=O)[C@H]1OCC[C@H]1c1ccccc1)C(=O)N1CCC[C@H](N1)C(=O)OCC(C)(C)C2
Observable: IC50
Observed Result: 1000 to 10000 nM

Compound: CCn1c(-c2cccnc2[C@H](C)OC)c2c3cc(ccc31)-c1csc(n1)C[C@H](NC(=O)[C@H](C(C)C)N(C)C(=O)N1CC(N(C)C(=O)C#CC(C)(C)N3CCC3)C1)C(=O)N1CCC[C@H](N1)C(=O)OCC(C)(C)C2
Observable: IC50
Observed Result: 100 to 1000 nM

Compound: C=CC(=O)N(C)CCC1CCN(C(=O)N(C)[C@H](C(=O)N[C@H]2Cc3nc(cs3)-c3ccc4c(c3)c(c(-c3cccnc3[C@H](C)OC)n4CC)CC(C)(C)COC(=O)C3CCCN(N3)C2=O)C(C)C)CC1 (stereo partly shown)
Observable: IC50
Observed Result: 10 to 100 nM

Compound: CO[C@@H](C)c1ncccc1-c1c2c3cc(ccc3n1CC(F)(F)F)N1CCO[C@@H](C[C@H](NC(=O)[C@H](C(C)C)N3CC[C@@]4(CCN(C(=O)C#CC(C)(C)N(C)C)C4)C3=O)C(=O)N3CCCC(N3)C(=O)OCC(C)(C)C2)C1
Observable: IC50
Observed Result: > 10000 nM

Compound: C=CC(=O)N1CC2(CCN2C(=O)N(C)[C@H](C(=O)N[C@H]2Cc3cccc(n3)-c3ccc4c(c3)c(c(-c3cccnc3[C@H](C)OC)n4CC)CC(C)(C)COC(=O)C3CCCN(N3)C2=O)C(C)C)C1 (stereo partly shown)
Observable: IC50
Observed Result: 100 to 1000 nM

Compound: CCn1c(-c2cccnc2[C@H](C)OC)c2c3cc(ccc31)-c1csc(n1)C[C@H](NC(=O)[C@H](CC1CC1)N(C)C(=O)N1CC(OC)C1)C(=O)N1CCC[C@H](N1)C(=O)OCC(C)(C)C2 (atropisomer, axis not shown)
Observable: IC50
Observed Result: 10 to 100 nM

Compound: CCn1c(-c2cc(C3CCN(C)CC3)cnc2[C@H](C)OC)c2c3cc(ccc31)-c1csc(n1)C[C@H](NC(=O)[C@H](C(C)C)N(C)C(=O)N1CC(C3COC3)C1)C(=O)N1CCC[C@H](N1)C(=O)OCC(C)(C)C2
Observable: IC50
Observed Result: 10 to 100 nM

Compound: C=CC(=O)N1CC[C@]2(C1)OCN(C(=O)N(C)[C@H](C(=O)N[C@H]1Cc3cccc(n3)-c3ccc4c(c3)c(c(-c3cccnc3[C@H](C)OC)n4CC)CC(C)(C)COC(=O)[C@@H]3CCCN(N3)C1=O)C(C)C)C2=O (atropisomer, axis not shown)
Observable: IC50
Observed Result: 1000 to 10000 nM

Compound: CCn1c(-c2cnccc2COC)c2c3cc(ccc31)-c1cc(O)cc(c1)C[C@H](NC(=O)[C@H](C(C)C)N(C)S(C)(=O)=O)C(=O)N1CCC[C@H](N1)C(=O)OCC(C)(C)C2
Observable: IC50
Observed Result: 1000 to 10000 nM

Compound: C=CC(=O)N1CC[C@@]2(CCN2C(=O)N(C)[C@H](C(=O)N[C@H]2Cc3nc(cs3)-c3ccc4c(c3)c(c(-c3cccnc3[C@H](C)OC)n4CC)CC(C)(C)COC(=O)C3CCCN(N3)C2=O)N(C)C)C1 (single isomer, unassigned)
Observable: IC50
Observed Result: 10 to 100 nM

Compound: C=CC(=O)N1CC[C@H](C(=O)N(C)[C@H](C(=O)N[C@H]2Cc3cc(O)cc(c3)-c3ccc4c(c3)c(c(C3=C(COC)CCCC3)n4CC)CC(C)(C)COC(=O)[C@@H]3CCCN(N3)C2=O)C(C)C)C1
Observable: IC50
Observed Result: 1000 to 10000 nM

Compound: C=CC(=O)N1CC[C@H](C(=O)N(C)[C@H](C(=O)N[C@H]2Cc3cc(O)cc(c3)-c3ccc4c(c3)c(c(-c3cccnc3)n4C3CC3)CC(C)(C)COC(=O)[C@@H]3CCCN(N3)C2=O)C(C)C)C1
Observable: IC50
Observed Result: > 10000 nM

Compound: CCn1c(-c2cc(N3CCN(C)CC3)cnc2[C@H](C)OC)c2c3cc(ccc31)-c1csc(n1)C[C@H](NC(=O)[C@H](C(C)C)N(C)C(=O)N1CC(N(C)C)C1)C(=O)N1CCC[C@H](N1)C(=O)OCC(C)(C)C2 (atropisomer, axis not shown)
Observable: IC50
Observed Result: 10 to 100 nM

Compound: CCn1c(-c2cccnc2[C@H](C)OC)c2c3cc(ccc31)-c1csc(n1)C[C@H](NC(=O)[C@H](C(C)C)N(C)C(=O)N1CCC[C@@H](CN(C)C)C1)C(=O)N1CCC[C@H](N1)C(=O)OCC(C)(C)C2
Observable: IC50
Observed Result: 10 to 100 nM

Compound: CCn1c(-c2cccnc2[C@H](C)OC)c2c3cc(ccc31)-c1csc(n1)C[C@H](NC(=O)[C@H](C(C)C)N(C)C(=O)N1CC(NC)C1)C(=O)N1CCC[C@H](N1)C(=O)OCC(C)(C)C2 (atropisomer, axis not shown)
Observable: IC50
Observed Result: 10 to 100 nM

Compound: CCn1c(-c2cc(N3CCN(C)CC3)cnc2[C@H](C)OC)c2c3cc(ccc31)-c1csc(n1)C[C@H](NC(=O)[C@H](C1CCCC1)N(C)C(=O)N1CCC1)C(=O)N1CCC[C@H](N1)C(=O)OCC(C)(C)C2 (atropisomer, axis not shown)
Observable: IC50
Observed Result: 10 to 100 nM

Data origin: patent US20230233569A1
